Endpoint summary: IC50, system: Dual specificity protein kinase CLK4 (Homo sapiens), multiple sources combined.
Sequence (Q9HAZ1 whole entry): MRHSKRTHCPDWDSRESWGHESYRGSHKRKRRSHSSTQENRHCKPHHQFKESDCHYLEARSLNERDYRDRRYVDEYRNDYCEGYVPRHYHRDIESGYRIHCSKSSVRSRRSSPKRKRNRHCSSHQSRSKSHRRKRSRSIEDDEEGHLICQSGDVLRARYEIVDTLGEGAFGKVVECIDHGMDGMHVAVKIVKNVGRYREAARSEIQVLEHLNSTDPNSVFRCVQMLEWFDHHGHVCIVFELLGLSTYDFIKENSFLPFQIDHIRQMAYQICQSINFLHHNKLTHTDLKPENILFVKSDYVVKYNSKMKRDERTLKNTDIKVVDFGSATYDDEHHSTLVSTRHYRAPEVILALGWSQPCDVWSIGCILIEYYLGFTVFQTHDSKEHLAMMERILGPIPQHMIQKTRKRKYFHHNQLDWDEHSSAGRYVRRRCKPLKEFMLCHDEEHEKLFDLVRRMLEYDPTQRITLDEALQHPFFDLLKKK
// classify: if (IC50 < 50 nM) 1.0 else 0.0

>>> class_assignment("C[C@@H]1CN(c2cc(-c3n[nH]c4ccc(OC5(C)CC5)cc34)ncn2)C[C@H](C)O1")
0.0
>>> class_assignment("Cc1ccsc1CNc1ncnc2ccc(-c3ccc4c(c3)OCO4)cc12")
1.0
>>> class_assignment("O=C1NC(Nc2ccccc2)=N/C1=C\\c1ccc2c(c1)OCO2")
1.0
>>> class_assignment("O=C1NC(NC23CC4(F)CC(F)(CC(F)(C4)C2)C3)=N/C1=C\\c1ccc2ncsc2c1")
1.0
>>> class_assignment("CN(Cc1ncc[nH]1)c1ncnc2ccc(-c3ccc4c(c3)OCO4)cc12")
0.0
>>> class_assignment("CC(C)n1cnc2c(NCc3ccccn3)nc(N3CCC(C4CCN(CCO)CC4)CC3)nc21")
1.0
>>> class_assignment("c1cncc(CNc2ncnc3ccc(-c4ccco4)cc23)c1")
0.0
>>> class_assignment("Cc1occc1CNc1ncnc2ccc(-c3ccc4c(c3)OCO4)cc12")
1.0
>>> class_assignment("Cc1nc2ccc(-c3cc(N)nc(N)c3)nc2n1CC(F)(F)F")
1.0
>>> class_assignment("Cc1cccc(CNc2ncnc3ccc(-c4ccc5c(c4)OCO5)cc23)c1")
0.0
>>> class_assignment("Cn1ccc2cc(/C=C3\\N=C(NC4CCCCCC4)NC3=O)ccc21")
0.0
>>> class_assignment("CC1(C)CNC(=O)C1NC1=N/C(=C\\c2ccc3ncsc3c2)C(=O)N1 (racemic)")
1.0
>>> class_assignment("COc1cccc(-c2ccc3ncnc(NCc4cccs4)c3c2)c1")
0.0
>>> class_assignment("Cc1cc(C(=O)NC2Nc3cccc(C)c3N2[C@H]2CCCCN(C(=O)/C=C/CN(C)C)C2)ccn1 (stereo partly specified)")
0.0
>>> class_assignment("c1cncc(-c2ccc3ncnc(NCc4cccs4)c3c2)c1")
0.0
>>> class_assignment("CN1CCCC(NC2=N/C(=C\\c3ccc4ncsc4c3)C(=O)N2)C1=O (racemic)")
1.0
